Measured IC50 accompanies every entry in the list below.
# assayed_system: Kir7.1-M125R (Homo sapiens, UniProt O60928, M125R)
# Sequence (O60928 whole entry M125R): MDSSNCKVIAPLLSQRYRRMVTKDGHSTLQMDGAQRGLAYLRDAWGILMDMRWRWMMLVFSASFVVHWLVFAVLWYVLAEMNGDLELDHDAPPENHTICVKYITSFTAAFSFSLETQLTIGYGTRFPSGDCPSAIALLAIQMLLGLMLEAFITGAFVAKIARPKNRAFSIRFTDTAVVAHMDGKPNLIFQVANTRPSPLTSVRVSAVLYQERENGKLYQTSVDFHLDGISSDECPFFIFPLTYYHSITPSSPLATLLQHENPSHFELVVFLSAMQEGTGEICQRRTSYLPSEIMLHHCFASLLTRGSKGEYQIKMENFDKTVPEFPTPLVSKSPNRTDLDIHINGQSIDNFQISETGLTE
# run_description: Tl+ flux assay in T-REx-HEK293 cells expressing Kir7.1-M125R
# Assay type: cell-based
property_label: IC50 (nM)

sample_smiles	unit_symbol	assay_value
CC(C)(C)OC(=O)NC1CCN(Cc2cc(Cl)c3cccnc3c2O)CC1	nM	1700
CC(C)OC(=O)NC1CCN(Cc2cc(Cl)c3cccnc3c2O)CC1	nM	1300

====

# assayed_system: Kir7.1 (Homo sapiens, UniProt O60928, M125R)
# run_description: Whole-cell patch clamp electrophysiology, Kir7.1
# Assay type: cell-based
# assay_conditions: Kir7.1 IC50 (Patch clamp), -120 mV
pIC50: −log10 of the molar value.
property_label: pIC50

compound	assay_value
CC(C)(C)OC(=O)NC1CCN(Cc2cc(Cl)c3cccnc3c2O)CC1 [Compound 11]	6.33
